Catalogue of cell count values
Experiment: inhibitors of TNFa-induced NFkB p65 translocation, primary screen, imaging, HUVEC, MLSMR starter and 10KST1 sets (AID 438);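 further: compound added about 3h40 before a 20 min TNFalpha stimulation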
Conditions: HUVEC TNFa-induced p65 nuclear translocation; measured here: nuclei count (cytotoxicity indicator), at 2.08 µM
Give a plain numeric answer without units written out.

Examples from the recorded data:
// query Can you share its cell count? I mean this compound: Cc1cc(C(=O)CSc2nnc(-c3ccccc3)n2C)c(C)n1C
// result 403

// query Can you share its cell count? I mean this compound: O=C(O)c1ccc(S(=O)(=O)Cc2ccccc2)cc1
// result 422

// query Can you share its cell count? I mean this compound: Cc1cc(NC(=O)CSc2nc(C3CCCCC3)nc3ccccc23)no1
// result 725

// query Can you share its cell count? I mean this compound: c1ccc(-c2cn3c4c(sc3n2)CCCC4)cc1
// result 789

// query Can you share its cell count? I mean this compound: O=C(O)CCc1ccc(-c2cccs2)n1CCC(=O)O
// result 828

Others:
// query Can you share its cell count? I mean this compound: O=C(CSc1nnnn1C1CCCC1)NCc1ccc2c(c1)OCO2
// result 816

// query Can you share its cell count? I mean this compound: COc1ccccc1OCC(=O)Nc1ccc(S(=O)(=O)Nc2nc(C)cc(C)n2)cc1
// result 376

// query Can you share its cell count? I mean this compound: CCn1c(CNc2ccc(OC)cc2)nnc1SCC(=O)c1ccc(OC)cc1
// result 544

// query Can you share its cell count? I mean this compound: Cc1cc(S(=O)(=O)N(Cc2ccccc2)Cc2ccc(N(C)C)cc2)ccc1-n1cnnn1
// result 793

// query Can you share its cell count? I mean this compound: Cc1ccc(C)c(N2CCN(C(=O)c3ccc(CS(=O)(=O)c4ccccc4C)o3)CC2)c1
// result 555

// query Can you share its cell count? I mean this compound: CN1CCN(S(=O)(=O)c2ccc(NC(=O)c3ccc(F)cc3)cc2)CC1
// result 624

// query Can you share its cell count? I mean this compound: CC1Cc2ccccc2N1C(=O)COC(=O)Cn1nnc(-c2ccccc2)n1 (configuration not stated)
// result 543

// query Can you share its cell count? I mean this compound: Cc1nn(-c2ccc(F)cc2)c(C)c1NS(=O)(=O)c1ccc(Cl)cc1
// result 307
